// reported viability, T/C per item
- Test system: 282377-053-R-J1-PDC complex spheroid viability
- methodNotes: Anticancer human tumor 282377-053-R-J1-PDC patient-derived colon adenocarcinoma cell line growth inhibition [RAS]
- experimentalConditions: second compound 0.316 µM; first compound 0.1 µM; stronger effect = lower value

// known answers, use as guide
compound	measurementTarget	recordedEndpoint	endpointResult
C[C@@H](NC(=O)c1ncnc(N)c1Cl)c1ncc(C(=O)Nc2cc(C(F)(F)F)c(Cl)cn2)s1 + C#Cc1c(F)ccc2cc(O)cc(-c3ncc4c(N5CC6CCC(C5)N6)nc(OCC56CCCN5CC(F)C6)nc4c3F)c12	282377-053-R-J1-PDC complex spheroid viability	viability, T/C	112%
NC1c2ccccc2OC12CCN(c1cnc3c(N4CCCc5ncccc54)n[nH]c3n1)CC2 (centres undefined) + C#Cc1c(F)ccc2cc(O)cc(-c3ncc4c(N5CC6CCC(C5)N6)nc(OCC56CCCN5CC(F)C6)nc4c3F)c12	282377-053-R-J1-PDC complex spheroid viability	viability, T/C	87.4%
CC(=O)OC12COC1CC(O)C1(C)C(=O)C(O)C3=C(C)C(OC(=O)C(O)C(NC(=O)OC(C)(C)C)c4ccccc4)CC(O)(C(OC(=O)c4ccccc4)C21)C3(C)C (centres undefined) + C=CC(=O)N1CCN(c2nc(OCC3CCCN3C)nc3c(F)c(-c4nc(N)cc(C)c4C(F)(F)F)c(Cl)cc23)C(C)C1	282377-053-R-J1-PDC complex spheroid viability	viability, T/C	21.6%

Shifting focus to the compound that follows.
Lab note: C=CC(=O)N1CCN(c2nc(OCC3CCCN3C)nc3c(F)c(-c4nc(N)cc(C)c4C(F)(F)F)c(Cl)cc23)C(C)C1 (centres undefined) + C#Cc1c(F)ccc2cc(O)cc(-c3ncc4c(N5CC6CCC(C5)N6)nc(OCC56CCCN5CC(F)C6)nc4c3F)c12 gave viability, T/C of 99.5%

====

- System: 282377-053-R-J1-PDC complex spheroid viability
- methodNotes: Anticancer human tumor 282377-053-R-J1-PDC cell line growth inhibition [RAS];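 note: spheroids exposed to agents for seven days before readout; luminescence viability as percent of DMSO vehicle control wells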
- experimentalConditions: second compound 0.316 µM; first compound 10 µM; stronger effect = lower value
// reported viability, T/C per item
Reply numerically in %, unit not repeated.

compound	measurementTarget	endpointResult
CC(C)NCC(C(=O)N1CCN(c2ncnc3c2C(C)CC3O)CC1)c1ccc(Cl)cc1 (stereo not drawn) + C=CC(=O)N1CCN(c2nc(OCC3CCCN3C)nc3c(F)c(-c4nc(N)cc(C)c4C(F)(F)F)c(Cl)cc23)C(C)C1	282377-053-R-J1-PDC complex spheroid viability	84.8
CC(=O)OC12COC1CC(O)C1(C)C(=O)C(O)C3=C(C)C(OC(=O)C(O)C(NC(=O)OC(C)(C)C)c4ccccc4)CC(O)(C(OC(=O)c4ccccc4)C21)C3(C)C (stereo not drawn) + C#Cc1c(F)ccc2cc(O)cc(-c3ncc4c(N5CC6CCC(C5)N6)nc(OCC56CCCN5CC(F)C6)nc4c3F)c12	282377-053-R-J1-PDC complex spheroid viability	67.2

Lab note: NC1c2ccccc2OC12CCN(c1cnc3c(N4CCCc5ncccc54)n[nH]c3n1)CC2 (stereo not drawn) + C#Cc1c(F)ccc2cc(O)cc(-c3ncc4c(N5CC6CCC(C5)N6)nc(OCC56CCCN5CC(F)C6)nc4c3F)c12 gave viability, T/C of 78.7

====

// reported viability, T/C per item
- Tested on: 282377-053-R-J1-PDC complex spheroid viability
- methodNotes: Anticancer human tumor 282377-053-R-J1-PDC cell line growth inhibition [RAS];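 note: spheroids exposed to agents for seven days before readout; luminescence viability as percent of DMSO vehicle control wells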
- experimentalConditions: second compound 1 µM; first compound 0.03 µM; stronger effect = lower value

// known answers, use as guide
molecule	viability, T/C
CC1(C)CCC(Nc2ncc(C(F)(F)F)c(-c3c[nH]c4c(P(C)(C)=O)c(C#N)ccc34)n2)CN1 (centres undefined) + C#Cc1c(F)ccc2cc(O)cc(-c3ncc4c(N5CC6CCC(C5)N6)nc(OCC56CCCN5CC(F)C6)nc4c3F)c12	80.4%
CCc1c2c(nc3ccc(O)cc13)-c1cc3c(c(=O)n1C2)COC(=O)[C@]3(O)CC + C#Cc1c(F)ccc2cc(O)cc(-c3ncc4c(N5CC6CCC(C5)N6)nc(OCC56CCCN5CC(F)C6)nc4c3F)c12	95.3%
CC1(C)CCC(Nc2ncc(C(F)(F)F)c(-c3c[nH]c4c(P(C)(C)=O)c(C#N)ccc34)n2)CN1 (centres undefined) + C=CC(=O)N1CCN(c2nc(OCC3CCCN3C)nc3c(F)c(-c4nc(N)cc(C)c4C(F)(F)F)c(Cl)cc23)C(C)C1	61.6%

Shifting focus to the molecule that follows.
Lab note: CCc1c2c(nc3ccc(O)cc13)-c1cc3c(c(=O)n1C2)COC(=O)[C@]3(O)CC + C=CC(=O)N1CCN(c2nc(OCC3CCCN3C)nc3c(F)c(-c4nc(N)cc(C)c4C(F)(F)F)c(Cl)cc23)C(C)C1 gave viability, T/C of 94.2%

====

- Tested on: 282377-053-R-J1-PDC complex spheroid viability
- methodNotes: Anticancer human tumor 282377-053-R-J1-PDC cell line growth inhibition [RAS];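 note: spheroids exposed to agents for seven days before readout; luminescence viability as percent of DMSO vehicle control wells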
- experimentalConditions: second compound 0.0949 µM; first compound 10 µM; stronger effect = lower value
// reported viability, T/C per item
Reply numerically in %, unit not repeated.

// known answers, use as guide
compound	measurementTarget	viability, T/C / %
C[C@@H](NC(=O)c1ncnc(N)c1Cl)c1ncc(C(=O)Nc2cc(C(F)(F)F)c(Cl)cn2)s1 + CCn1c(-c2cc(N3CCN(C)CC3)cnc2C(C)OC)c2c3cc(ccc31)-c1csc(n1)CC(NC(=O)C1CC1C)C(=O)N1CCCC(N1)C(=O)OCC(C)(C)C2	282377-053-R-J1-PDC complex spheroid viability	74.2
NC1c2ccccc2OC12CCN(c1cnc3c(N4CCCc5ncccc54)n[nH]c3n1)CC2 (centres undefined) + CCn1c(-c2cccnc2C(C)OC)c2c3cc(ccc31)N1CCOC(CC(NC(=O)C(C(C)C)N(C)C(=O)C3(F)CCN(C(=O)C#CC(C)(C)N(C)C)CC3)C(=O)N3CCCC(N3)C(=O)OCC(C)(C)C2)C1	282377-053-R-J1-PDC complex spheroid viability	118
CC(C)NCC(C(=O)N1CCN(c2ncnc3c2C(C)CC3O)CC1)c1ccc(Cl)cc1 (centres undefined) + CCn1c(-c2cc(N3CCN(C)CC3)cnc2C(C)OC)c2c3cc(ccc31)-c1csc(n1)CC(NC(=O)C1CC1C)C(=O)N1CCCC(N1)C(=O)OCC(C)(C)C2	282377-053-R-J1-PDC complex spheroid viability	65.4

Shifting focus to the compound that follows.
Lab note: CC1(O)CCCC1n1c(=O)c(C(F)F)cc2cnc(NC3CCN(S(C)(=O)=O)CC3)nc21 (centres undefined) + CCn1c(-c2cccnc2C(C)OC)c2c3cc(ccc31)N1CCOC(CC(NC(=O)C(C(C)C)N(C)C(=O)C3(F)CCN(C(=O)C#CC(C)(C)N(C)C)CC3)C(=O)N3CCCC(N3)C(=O)OCC(C)(C)C2)C1 gave viability, T/C of 5.91

====

// reported viability, T/C per item
- Test system: 282377-053-R-J1-PDC complex spheroid viability
- methodNotes: Anticancer human tumor 282377-053-R-J1-PDC cell line growth inhibition [RAS];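 note: spheroids exposed to agents for seven days before readout; luminescence viability as percent of DMSO vehicle control wells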
- experimentalConditions: second compound 0.316 µM; first compound 0.1 µM; stronger effect = lower value
- From the text: RAS pathway inhibitors in Combinations in Complex Spheroids A high-throughput screen of multi-cell type tumor spheroids was designed to identify active combinations of RAS pathway inhibitors and targeted small molecules. Complex spheroids include a stromal component modeled by human endothelial cells (HUVEC) and fibroblasts modeled by human mesenchymal stem cells (MSCs). […] Compounds. […] If the clinical Cmax for an agent had not been determined, the highest concentration tested was 10 microM. […]
Reply numerically in %, unit not repeated.

// known answers, use as guide
compound	viability, T/C (%)
C[C@@H](NC(=O)c1ncnc(N)c1Cl)c1ncc(C(=O)Nc2cc(C(F)(F)F)c(Cl)cn2)s1 + C=CC(=O)N1CCN(c2nc(OCC3CCCN3C)nc3c(F)c(-c4nc(N)cc(C)c4C(F)(F)F)c(Cl)cc23)C(C)C1	118
Nc1ccn(C2OC(CO)C(O)C2(F)F)c(=O)n1 (centres undefined) + C=CC(=O)N1CCN(c2nc(OCC3CCCN3C)nc3c(F)c(-c4nc(N)cc(C)c4C(F)(F)F)c(Cl)cc23)C(C)C1	65.6
C=CC(=O)Nc1cc(Nc2nccc(-c3cn(C)c4ccccc34)n2)c(OC)cc1N(C)CCN(C)C + C#Cc1c(F)ccc2cc(O)cc(-c3ncc4c(N5CC6CCC(C5)N6)nc(OCC56CCCN5CC(F)C6)nc4c3F)c12	86.1
CC1(O)CCCC1n1c(=O)c(C(F)F)cc2cnc(NC3CCN(S(C)(=O)=O)CC3)nc21 (centres undefined) + C#Cc1c(F)ccc2cc(O)cc(-c3ncc4c(N5CC6CCC(C5)N6)nc(OCC56CCCN5CC(F)C6)nc4c3F)c12	126
CC(Nc1ccc2c(c1)OCCn1cc(N3C(=O)OCC3C(F)F)nc1-2)C(N)=O (centres undefined) + C=CC(=O)N1CCN(c2nc(OCC3CCCN3C)nc3c(F)c(-c4nc(N)cc(C)c4C(F)(F)F)c(Cl)cc23)C(C)C1	92.8

Shifting focus to the compound that follows.
Lab note: CC1(O)CCCC1n1c(=O)c(C(F)F)cc2cnc(NC3CCN(S(C)(=O)=O)CC3)nc21 (centres undefined) + C=CC(=O)N1CCN(c2nc(OCC3CCCN3C)nc3c(F)c(-c4nc(N)cc(C)c4C(F)(F)F)c(Cl)cc23)C(C)C1 gave viability, T/C of 112

Data provenance: PubChem BioAssay AID2060905
